Value source: the PolyMetriX glass transition set

# maps each entry to its glass transition temperature
± gives the standard deviation of the reports.

[
  {
    "Compound": "*CC(*)C(=O)OCCC (repeat unit) [Poly(n-propyl acrylate) ]",
    "glass transition temperature": "-41.33 ± 4 °C"
  },
  {
    "Compound": "*CC(*)(C)C(=O)OCCCCc1ccc(/N=N/c2ccc(OC(F)(F)F)cc2)cc1 (repeat unit)",
    "glass transition temperature": "203.50 °C"
  },
  {
    "Compound": "*OC(C)CCOC(=O)C(CCCCCCOc1ccc(/N=C/c2ccc([N+](=O)[O-])cc2)cc1)C(*)=O (repeat unit)",
    "glass transition temperature": "3.00 °C"
  },
  {
    "Compound": "*CC(*)(C)C(=O)OCC1OC(n2ccc(=O)[nH]c2=O)C(O)C1O (repeat unit)",
    "glass transition temperature": "143.50 °C"
  },
  {
    "Compound": "*Oc1ccc(C(C)(C)c2ccc(Oc3ccc(C(=O)Nc4ccc(-c5ccc(NC(=O)c6ccc(*)cc6)cc5C(F)(F)F)c(C(F)(F)F)c4)cc3)cc2)cc1 (repeat unit)",
    "glass transition temperature": "250.00 °C"
  },
  {
    "Compound": "*Oc1ccc(CC(NC(=O)CCc2ccc(OC(=O)CCCCC(*)=O)cc2)C(=O)OCCCCCC)cc1 (repeat unit)",
    "glass transition temperature": "37.73 °C"
  },
  {
    "Compound": "*CC(*)(C)C(=O)OCc1ccc2c(c1)c1ccccc1n2CCCCCCCCCCCCCC (repeat unit)",
    "glass transition temperature": "26.00 °C"
  },
  {
    "Compound": "*CC(*)(C)C(=O)OCC1COC(CP(=O)(OCC)OCC)O1 (repeat unit)",
    "glass transition temperature": "115.00 °C"
  },
  {
    "Compound": "*C(=O)Nc1cccc(NC(=O)c2ccc(N3C(=O)c4ccc(*)cc4C3=O)cc2)c1 (repeat unit)",
    "glass transition temperature": "240.00 °C"
  },
  {
    "Compound": "*CCOCCOC(=O)CCSCCC(=O)O* (repeat unit)",
    "glass transition temperature": "-33.00 °C"
  },
  {
    "Compound": "*OC(COC(=O)NCCCCCCNC(*)=O)c1ccco1 (repeat unit)",
    "glass transition temperature": "17.00 °C"
  },
  {
    "Compound": "*Oc1c(C)cc(-c2cc(C)c(Oc3ccc(C(=O)c4ccccc4-c4ccccc4C(=O)c4ccc(*)cc4)cc3)c(C)c2)cc1C (repeat unit)",
    "glass transition temperature": "233.00 °C"
  },
  {
    "Compound": "*c1ccc(Oc2ccc(C(C)(C)c3ccc(Oc4ccc(N5C(=O)C6CCC(C7CCC8C(=O)N(*)C(=O)C8C7)CC6C5=O)cc4)cc3)cc2)cc1 (repeat unit)",
    "glass transition temperature": "225.00 °C"
  },
  {
    "Compound": "*C(=O)Nc1ccc(Oc2ccc(Oc3ccc(NC(=O)c4ccc5c(c4)C(=O)N(c4ccc(Oc6cccc7c(Oc8ccc(N9C(=O)c%10ccc(*)cc%10C9=O)cc8)cccc67)cc4)C5=O)cc3)cc2)cc1 (repeat unit)",
    "glass transition temperature": "285.00 °C"
  },
  {
    "Compound": "*CC(*)OC(=O)C(C)(C)C(C)C(C)C (repeat unit)",
    "glass transition temperature": "55.00 °C"
  },
  {
    "Compound": "*CC(O)COC(=O)CCCCCCCCC(=O)OCC(O)COc1ccc(C(=O)Oc2ccc(O*)cc2)cc1 (repeat unit)",
    "glass transition temperature": "36.00 °C"
  }
]
